# TESTED_SYSTEM: human serum albumin (human) (UniProt P02768)
# Sequence (P02768 25-609 limits assumed): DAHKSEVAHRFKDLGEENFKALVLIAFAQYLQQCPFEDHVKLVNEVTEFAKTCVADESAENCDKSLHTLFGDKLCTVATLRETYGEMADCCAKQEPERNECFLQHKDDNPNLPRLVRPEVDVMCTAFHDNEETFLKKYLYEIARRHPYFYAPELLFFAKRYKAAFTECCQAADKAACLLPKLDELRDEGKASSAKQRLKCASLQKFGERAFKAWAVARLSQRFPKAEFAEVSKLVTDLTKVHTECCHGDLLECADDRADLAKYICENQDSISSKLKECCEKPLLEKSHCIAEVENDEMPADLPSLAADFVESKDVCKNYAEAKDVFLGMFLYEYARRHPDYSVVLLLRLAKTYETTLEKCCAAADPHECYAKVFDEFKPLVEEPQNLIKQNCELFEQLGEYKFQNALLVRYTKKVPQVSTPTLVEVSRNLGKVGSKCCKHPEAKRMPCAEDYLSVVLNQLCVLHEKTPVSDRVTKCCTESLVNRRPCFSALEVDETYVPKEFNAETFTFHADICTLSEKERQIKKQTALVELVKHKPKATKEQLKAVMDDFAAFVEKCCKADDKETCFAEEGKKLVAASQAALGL
# PROCEDURE_TEXT: screening ELISA
ASSAY_ENDPOINT: HSA

BINDER | HSA
SEQ ID NO 303 (designed binder) MLPAPKNLVVSRVTEDSARLSWTAPDAAFDSFFIAYFEFANPGEAIVLTVPGSERSYDLTGLKPGTEYKVVIQGVKGGTPSEPLSAIFTT | 2650
SEQ ID NO 137 (designed binder) MLPAPKNLVVSRVTEDSARLSWTAPDAAFDSFEIEYDEPSVAGEAIVLTVPGSERSYDLTGLKPGTEYRVFIWGVKGGNQSWPLSAIFTT | 2050
SEQ ID NO 140 (designed binder) MLPAPKNLVVSRVTEDSARLSWTAPDAAFDSFWISYEESDTEGEAIYLRVPGSERSYDLTGLKPGTEYNVTIQGVKGGFPSMPLSAIFTT | 1600
SEQ ID NO 246 (designed binder) MLPAPKNLVVSRVTEDSARLSWTAPDAAFDSFTIAYNEQNHYGEAIVLTVPGSERSYDLTGLKPGTEYGVWIEGVKGGTLSWPLSAIFTT | 1400
SEQ ID NO 191 (designed binder) MLPAPENLVVSRVTEDSARLSWTAPDAAFDSFEITYEENWRRGEAIVLTVPGSERSYDLTGPKPGTEYIVIIQGVKGGAESWPLSAIFTT | 34000
SEQ ID NO 207 (designed binder) MLPAPKNLVVSRVTEDSARLSWTAPDAAFDSFFIGYLEPQPPGEAIVLTVPGSERSYDLTGLKPGTEYNVTIQGVKGGTPSEPLSAISTT | 25600
SEQ ID NO 117 (designed binder) MLPAPKNLVVSRVTEDSARLSWTAPDAAFDSFTIPYGEAFNPGEAIVLTVPGSERSYDLTGLKPGTEYDVFIEGVKGGTLSWPLSAIFTT | 23500
SEQ ID NO 238 (designed binder) MLPAPKNLVVSRVTEDSARLSWTAPDAAFDSFKIFYQEFGGEAIVLTVPGSERSYDLTGLKPGTEYWVDIYGVKGGYTSSPLSAIFTT | 4250

A: SEQ ID NO 150 (designed binder) MLPAPKNLVVSRVTEDSARLSWTAPDAAFDSFPIAYAEPSPTGEAIVLTVPGSERSYDLTGLKPGTEYSVLIHGVKGGHLSDPLSAIFTT
B: SEQ ID NO 151 (designed binder) MLPAPKNLVVSRVTEDSARLSWTAPDAAFDSFFIPYAEPSPTGEAIVLTVPGSERSYDLTGLKPGTEYGVVILGVKGGYGSDPLSAIFTT
C: SEQ ID NO 258 (designed binder) MLPAPKNLVVSRVTEDSARLSWTAPDAAFDSFFIPYAEPSPTGEAIVLTVPGSERSYDLTGLKPGTEYDVWIEGVKGGVLSWPLSAIFTT
D: SEQ ID NO 230 (designed binder) MLPAPKNLVVSRVTEDSARLSWTAPDAAFDSFQIRYPKRWISGEAIVLTVPGSERSYDLTGLKPGTEYEVVIRGVKGGEYSWPLSAIFTT
E: SEQ ID NO 278 (designed binder) MLPAPKNLVVSRVTEDSARLSWTAPDAAFDSFPIAYAEPRPDGEAIVLTVPGSERSYDLTGLKPGTEYSVLIHGVKGGHLSDPLSAIFTT
Task item: Falling order of HSA, please. Write the labels out in the order the request specifies.
Reply: B, C, E, A, D
